For each record, write down the corresponding MIC.
tested on: A. baumannii CDC-0083; experiment: microbe, parasite or virus in culture; assay type: cell-based; details: Acinetobacter baumannii, CDC0083, read-out: MIC, A. baumannii CDC-0083

Report MIC for O=C(NCCCN1CCN(C(=O)NC(C(=O)N[C@H]2Cc3ccc(F)c(C(=O)O)c3OB2O)c2cc(F)c(O)c(O)c2Cl)C(=O)C1=O)c1cccc(O)c1F (stereo partly drawn) [Example 406] tested on A. baumannii CDC-0083.
< 1 µg/mL

And what about the compound O=C(NCCCN1CCN(C(=O)N[C@@H](C(=O)N[C@H]2Cc3ccc(F)c(C(=O)O)c3OB2O)c2cc(F)c(O)c(O)c2Cl)C(=O)C1=O)c1ccnc(F)c1F [Example 300] ?
< 1 µg/mL

Query O=C(NCCCN1CCN(C(=O)NC(C(=O)N[C@H]2Cc3ccc(F)c(C(=O)O)c3OB2O)c2cc(F)c(O)c(O)c2Cl)C(=O)C1=O)c1ccncc1F (stereo partly drawn) [Example 400] next
2 to 4 µg/mL

Similarly, O=C(NCCCN1CCN(C(=O)N[C@H](C(=O)N[C@H]2Cc3ccc(F)c(C(=O)O)c3OB2O)c2cc(F)c(O)c(O)c2Cl)C(=O)C1=O)c1ccnc(F)c1F [Example 299] ?
2 to 4 µg/mL

Ok, now O=C(NCCCN1CCN(C(=O)NC(C(=O)N[C@H]2Cc3ccc(F)c(C(=O)O)c3OB2O)c2cc(F)c(O)c(O)c2Cl)C1=O)c1ccncc1 (stereo partly drawn) [Example 256]
< 1 µg/mL

O=C(NCCCN1CCN(C(=O)N[C@H](C(=O)N[C@H]2Cc3ccc(F)c(C(=O)O)c3OB2O)c2cc(F)c(O)c(O)c2Cl)C(=O)C1=O)c1ccc(O)cc1Cl (single isomer, unassigned) [Example 470] ?
> 128 µg/mL

====

system: B. thailandensis ATCC 700388; assay: microbe, parasite or virus in culture; format: cell-based; conditions: Burkholderia thailandensis, ATCC700388, read-out: Minimum inhibitory concentration (MIC), B. thailandensis ATCC 700388
metric: MIC

Please give the measured MIC for this compound: O=C(O)c1c(F)ccc2c1OB(O)[C@@H](NC(=O)[C@H](NC(=O)N1CCN(C3CCN(S(=O)(=O)c4ccc5[nH]nnc5c4)CC3)C1=O)c1cc(F)c(O)c(O)c1F)C2 [Example 622]
2 to 4 µg/mL

What do we get for O=C(NCCCN1CCN(C(=O)NC(C(=O)N[C@H]2Cc3ccc(F)c(C(=O)O)c3OB2O)c2cc(F)c(O)c(O)c2Cl)C(=O)C1=O)c1cc(F)ncc1F (mixture of isomers) [Example 405] ?
< 1 µg/mL

# repeat for O=C(O)c1c(F)ccc2c1OB(O)[C@@H](NC(=O)C(NC(=O)N1CCN(S(=O)(=O)CCNC(=O)[C@@H]3CCCN3)C1=O)c1cc(F)c(O)c(O)c1Cl)C2 (stereo partly shown) [Example 265]
< 1 µg/mL

Next record, please: CS(=O)(=O)N1CCN(C(=O)N[C@@H](C(=O)N[C@H]2Cc3cccc(C(=O)O)c3OB2O)c2ccc(P(=O)(O)O)cc2)C1=O (single isomer, unassigned) [Example 6]
8 to 16 µg/mL

Input O=C(O)c1c(F)ccc2c1OB(O)[C@@H](NC(=O)[C@H](NC(=O)N1CCN(C3CCN(C(=O)Nc4ccc(O)cc4)CC3)C(=O)C1=O)c1cc(F)c(O)c(O)c1Cl)C2 (single isomer, unassigned) [Example 426]
< 1 µg/mL

Please do the same for O=C(O)c1c(F)ccc2c1OB(O)[C@@H](NC(=O)[C@H](NC(=O)N1CCN(C3CCN(C(=O)Nc4c(F)ccc(O)c4F)CC3)C1=O)c1cc(F)c(O)c(O)c1Cl)C2 (single isomer, unassigned) [Example 454] as well.
< 1 µg/mL

Try the compound O=C(CN1CCN(C(=O)NC(C(=O)N[C@H]2Cc3ccc(F)c(C(=O)O)c3OB2O)c2cc(F)c(O)c(O)c2Cl)C(=O)C1=O)Nc1ccc(O)cc1 (stereo partly shown) [Example 230]
2 to 4 µg/mL

Likewise for O=C(O)c1c(F)ccc2c1OB(O)[C@@H](NC(=O)C(NC(=O)N1CCN(C3CCN(C(=O)Nc4cc(O)ccc4F)CC3)C(=O)C1=O)c1cc(F)c(O)c(O)c1Cl)C2 (stereo partly shown) [Example 479] ?
< 1 µg/mL

Same for O=C(NCCCN1CCN(C(=O)NC(C(=O)N[C@H]2Cc3ccc(F)c(C(=O)O)c3OB2O)c2cc(F)c(O)c(O)c2Cl)C(=O)C1=O)c1ccc(F)c(O)c1Cl (stereo partly shown) [Example 412]
2 to 4 µg/mL

What do we get for O=C(NCCCN1CCN(C(=O)N[C@@H](C(=O)N[C@H]2Cc3ccc(F)c(C(=O)O)c3OB2O)c2cc(F)c(O)c(O)c2Cl)C(=O)C1=O)c1cc(F)c(O)c(F)c1 [Example 422] ?
< 1 µg/mL

====

I'd be grateful if you could share measured MIC for these entries.
tested on: P. aeruginosa CDC-0110; assay: microbe, parasite or virus in culture; format: cell-based; details: Pseudomonas aeruginosa, CDC0110, read-out: Minimum inhibitory concentration, P. aeruginosa CDC-0110

Consider the compound O=C(O)c1c(F)ccc2c1OB(O)[C@@H](NC(=O)[C@H](NC(=O)N1CCN(C3CCN(C(=O)Nc4c(F)ccc(O)c4F)CC3)C1=O)c1cc(F)c(O)c(O)c1Cl)C2 (single isomer, unassigned) and give its measured MIC.
< 1 µg/mL

Also O=C(NCCCN1CCN(C(=O)NC(C(=O)N[C@H]2Cc3ccc(F)c(C(=O)O)c3OB2O)c2cc(F)c(O)c(O)c2Cl)C(=O)C1=O)c1cc(F)ncc1F (mixture of isomers) , if possible.
2 to 4 µg/mL

Note, next up: O=C(NCCN1CCN(C(=O)NC(C(=O)N[C@H]2Cc3ccc(F)c(C(=O)O)c3OB2O)c2cc(F)c(O)c(O)c2Cl)C(=O)C1=O)c1ccncc1 (some centres unmarked)
< 1 µg/mL

Same read-out for O=C(NCCCN1CCN(C(=O)NC(C(=O)N[C@H]2Cc3ccc(F)c(C(=O)O)c3OB2O)c2cc(F)c(O)c(O)c2Cl)C(=O)C1=O)c1cc(O)ccc1F (some centres unmarked) ?
< 1 µg/mL

For O=C(O)c1c(F)ccc2c1OB(O)[C@@H](NC(=O)[C@H](NC(=O)N1CCN(C3CCN(C(=O)Nc4c(F)ccc(O)c4Cl)CC3)C1=O)c1cc(F)c(O)c(O)c1Cl)C2 (single isomer, unassigned) then?
< 1 µg/mL

====

system: N. gonorrhoeae WHO M; assay: Liquid broth MIC in Fastidious broth; settings: Neisseria gonorrhoeae, read-out: Minimum Inhibitory Concentration, WHO M
Give MIC for every item shown.

# get_value(readout= MIC, system= N. gonorrhoeae WHO M) for O=C(NCCS(=O)(=O)N1CCN(C(=O)NC(C(=O)N[C@H]2Cc3ccc(F)c(C(=O)O)c3OB2O)c2cc(F)c(O)c(O)c2Cl)C1=O)c1cccc(O)c1 (stereo partly drawn)
4 to 8 µg/mL

Please give the result for O=C(NCCCN1CCN(C(=O)N[C@H](C(=O)N[C@H]2Cc3ccc(F)c(C(=O)O)c3OB2O)c2cc(F)c(O)c(O)c2Cl)C1=O)c1cccc(O)c1 too.
> 64 µg/mL

Would you mind doing O=C(NCCCN1CCN(C(=O)N[C@@H](C(=O)N[C@H]2Cc3ccc(F)c(C(=O)O)c3OB2O)c2cc(F)c(O)c(O)c2Cl)C1=O)c1cccc(O)c1 as well?
4 to 8 µg/mL

====

tested on: N. gonorrhoeae WHO Q; experiment: Liquid broth MIC in Fastidious broth; conditions: Neisseria gonorrhoeae, read-out: Minimum Inhibitory Concentration (MIC), N. gonorrhoeae WHO Q
Assign MIC to each entry below.

# get_value(readout= MIC, system= N. gonorrhoeae WHO Q) for CCN1CCN(C(=O)N[C@@H](C(=O)N[C@H]2Cc3cccc(C(=O)O)c3OB2O)c2ccc(P(=O)(O)O)c(F)c2)C(=O)C1=O (single isomer, unassigned) [Example 7]
< 1 µg/mL

Now consider O=C(O)c1cccc2c1OB(O)[C@@H](NC(=O)[C@@H](NC(=O)c1cccn(C(F)F)c1=O)c1ccc(P(=O)(O)O)cc1)C2 (single isomer, unassigned) [Example 190] and answer again.
4 to 8 µg/mL

Try this molecule too: O=C(O)c1cccc2c1OB(O)[C@@H](NC(=O)C(NC(=O)c1cnc[nH]c1=O)c1ccc(P(=O)(O)O)cc1)C2 (stereo partly drawn) [Example 176]
16 to 32 µg/mL

====

tested on: N. gonorrhoeae WHO Z; test: Liquid broth MIC in Fastidious broth; conditions: Neisseria gonorrhoeae, read-out: Minimum Inhibitory Concentration (MIC), N. gonorrhoeae WHO Z
metric: MIC

Please report the recorded MIC for O=C(O)c1cccc2c1OB(O)[C@@H](NC(=O)C(NC(=O)C1CCCCC1)c1ccc(P(=O)(O)O)cc1)C2 (stereo partly drawn) .
16 to 32 µg/mL

Param item: O=C(CN1CCN(C(=O)NC(C(=O)N[C@H]2Cc3ccc(F)c(C(=O)O)c3OB2O)c2cc(F)c(O)c(O)c2Cl)C(=O)C1=O)Nc1ccncc1 (stereo partly drawn)
16 to 32 µg/mL

Also O=C(NCCCN1CCN(C(=O)NC(C(=O)N[C@H]2Cc3ccc(F)c(C(=O)O)c3OB2O)c2cc(F)c(O)c(O)c2Cl)C(=O)C1=O)c1ccccc1 (stereo partly drawn) , if possible.
> 64 µg/mL
